- System tested: human recombinant ROCK II (Homo sapiens, UniProt O75116)
- Construct: N-terminal His6-tagged recombinant human ROCK-II residues 11-552; His6 (N); purchased Millipore GmbH, Schwalbach, Germany
- Sequence (O75116 11-552): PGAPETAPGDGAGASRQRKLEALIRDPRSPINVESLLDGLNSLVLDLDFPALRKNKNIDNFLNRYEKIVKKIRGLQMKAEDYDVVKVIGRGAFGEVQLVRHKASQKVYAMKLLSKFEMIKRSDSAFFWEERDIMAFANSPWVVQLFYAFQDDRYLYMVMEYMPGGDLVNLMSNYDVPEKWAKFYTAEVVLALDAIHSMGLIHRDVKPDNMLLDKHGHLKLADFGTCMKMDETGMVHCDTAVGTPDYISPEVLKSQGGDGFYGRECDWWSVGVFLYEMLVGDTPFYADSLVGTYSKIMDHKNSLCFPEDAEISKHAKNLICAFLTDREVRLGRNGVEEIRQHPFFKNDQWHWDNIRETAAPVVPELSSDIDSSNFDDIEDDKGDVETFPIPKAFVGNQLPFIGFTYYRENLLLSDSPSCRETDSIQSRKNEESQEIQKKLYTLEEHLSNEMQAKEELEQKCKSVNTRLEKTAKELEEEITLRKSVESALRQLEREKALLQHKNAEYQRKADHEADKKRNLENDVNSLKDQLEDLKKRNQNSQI
- Procedure details: Determination of Rho kinase inhibition (Caliper peptide phosphorylation assay)
- Assay type: biochemical
- Experimental parameters: 60 min at 32° C., negative decadal logarithm of the IC50

[
  {
    "Compound": "CCC(N)[C@]1(c2ccccc2)CC[C@H](Oc2cc3cc[nH]c(=O)c3cc2F)CC1 (stereo partly drawn)",
    "pIC50": "++++++ (7.0≦pIC50<8.0)"
  },
  {
    "Compound": "CCC(N)[C@]1(c2ccc(OC(F)(F)F)cc2)CC[C@H](Oc2cc3cc[nH]c(=O)c3cc2Cl)CC1 (stereo partly drawn)",
    "pIC50": "+++++++ (8.0≦pIC50)"
  },
  {
    "Compound": "CC(C)(N)[C@]1(c2ccc(F)cc2)CC[C@H](Oc2cc3cc[nH]c(=O)c3cc2Cl)CC1",
    "pIC50": "+++++++ (8.0≦pIC50)"
  },
  {
    "Compound": "CCC(N)[C@]1(c2ccc(C(C)C)cc2)CC[C@H](Oc2cc3cc[nH]c(=O)c3cc2Cl)CC1 (stereo partly drawn)",
    "pIC50": "++++++ (7.0≦pIC50<8.0)"
  },
  {
    "Compound": "CC(C)(N)[C@]1(c2ccc(F)cc2)CC[C@@H](Oc2cc3cc[nH]c(=O)c3cc2Cl)CC1",
    "pIC50": "++++++ (7.0≦pIC50<8.0)"
  },
  {
    "Compound": "NC1([C@]2(c3ccccc3)CC[C@H](Oc3cc4cc[nH]c(=O)c4cc3Cl)CC2)CC1",
    "pIC50": "+++++++ (8.0≦pIC50)"
  },
  {
    "Compound": "CC(N)[C@]1(c2ccccc2)CC[C@H](Oc2cc3cc[nH]c(=O)c3cc2Cl)CC1 (stereo partly drawn)",
    "pIC50": "+++++++ (8.0≦pIC50)"
  },
  {
    "Compound": "CCC(N)[C@]1(c2ccccc2Br)CC[C@H](Oc2cc3cc[nH]c(=O)c3cc2Cl)CC1 (stereo partly drawn)",
    "pIC50": "+++++++ (8.0≦pIC50)"
  }
]

* * *

- System tested: recombinant human PKG1-beta (Homo sapiens)
- Construct: Active recombinant human PKG1-beta (full-length, with N-terminal His-tag); His-tag (N); purchased Millipore GmbH, Schwalbach, Germany
- Sequence (Q13976 1-686 isoform Q13976-2): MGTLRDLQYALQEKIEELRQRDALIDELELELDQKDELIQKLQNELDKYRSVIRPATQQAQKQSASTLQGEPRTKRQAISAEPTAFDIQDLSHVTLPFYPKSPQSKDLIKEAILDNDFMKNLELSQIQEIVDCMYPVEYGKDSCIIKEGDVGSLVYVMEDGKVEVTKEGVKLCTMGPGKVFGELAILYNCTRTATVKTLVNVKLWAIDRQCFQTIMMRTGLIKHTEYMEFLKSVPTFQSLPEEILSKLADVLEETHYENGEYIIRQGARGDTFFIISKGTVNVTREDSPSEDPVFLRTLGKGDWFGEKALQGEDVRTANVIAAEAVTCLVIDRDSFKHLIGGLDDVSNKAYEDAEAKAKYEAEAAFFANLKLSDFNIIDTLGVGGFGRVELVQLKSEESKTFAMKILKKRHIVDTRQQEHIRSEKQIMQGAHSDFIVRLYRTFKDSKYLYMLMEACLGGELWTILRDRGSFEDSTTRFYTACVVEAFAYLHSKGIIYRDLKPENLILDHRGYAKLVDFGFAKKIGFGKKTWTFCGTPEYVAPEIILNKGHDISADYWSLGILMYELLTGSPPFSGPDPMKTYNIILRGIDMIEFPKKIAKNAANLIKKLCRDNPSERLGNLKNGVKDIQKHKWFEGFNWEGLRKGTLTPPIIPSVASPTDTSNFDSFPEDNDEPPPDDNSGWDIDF
- Procedure details: Determination of Protein Kinase G inhibition (Caliper peptide phosphorylation assay)
- Type: biochemical
- Experimental parameters: recombinant human PKG1-beta versus ROCK II

[
  {
    "Compound": "CCC(N)[C@]1(c2ccccc2)CC[C@@H](Oc2cc3cc[nH]c(=O)c3cc2Cl)CC1 (stereo partly shown)",
    "Selectivity against PKG": ">300"
  },
  {
    "Compound": "CCC(N)C1CCC(Oc2cc3cc[nH]c(=O)c3cc2Cl)CC1 (single isomer, unassigned) [Example 129]",
    "Selectivity against PKG": ">10"
  },
  {
    "Compound": "CCC(N)[C@]1(c2ccc(C(F)(F)F)cc2)CC[C@H](Oc2cc3cc[nH]c(=O)c3cc2Cl)CC1 (stereo partly shown)",
    "Selectivity against PKG": ">300"
  },
  {
    "Compound": "CCC(N)[C@]1(c2cccc(C(F)(F)F)c2)CC[C@H](Oc2cc3cc[nH]c(=O)c3cc2C)CC1 (stereo partly shown)",
    "Selectivity against PKG": ">10"
  },
  {
    "Compound": "CCCC(N)[C@]1(c2ccc(F)cc2)CC[C@@H](Oc2cc3cc[nH]c(=O)c3cc2Cl)CC1 (stereo partly shown)",
    "Selectivity against PKG": ">10"
  },
  {
    "Compound": "Cc1ccc(C(N)C2CCC(Oc3cc4cc[nH]c(=O)c4cc3Cl)CC2)cc1 (single isomer, unassigned) [Example 39]",
    "Selectivity against PKG": ">100"
  },
  {
    "Compound": "CCC(N)[C@]1(c2ccccc2)CC[C@H](Oc2cc3cc[nH]c(=O)c3cc2F)CC1 (stereo partly shown)",
    "Selectivity against PKG": ">100"
  },
  {
    "Compound": "CC(N)[C@]1(c2ccc(F)cc2)CC[C@H](Oc2cc3cc[nH]c(=O)c3cc2Cl)CC1 (stereo partly shown)",
    "Selectivity against PKG": ">300"
  },
  {
    "Compound": "CCCC(N)[C@]1(c2ccccc2)CC[C@H](Oc2cc3cc[nH]c(=O)c3cc2Cl)CC1 (stereo partly shown)",
    "Selectivity against PKG": ">100"
  },
  {
    "Compound": "CCC(N)[C@]1(c2ccccc2F)CC[C@H](Oc2cc3cc[nH]c(=O)c3cc2Cl)CC1 (stereo partly shown)",
    "Selectivity against PKG": ">100"
  },
  {
    "Compound": "CCC(N)C1CCC(Oc2cc3cc[nH]c(=O)c3cc2Cl)CC1 (single isomer, unassigned) [Example 130]",
    "Selectivity against PKG": ">10"
  },
  {
    "Compound": "NC(C1CC1)[C@]1(c2ccccc2)CC[C@H](Oc2cc3cc[nH]c(=O)c3cc2Cl)CC1 (stereo partly shown)",
    "Selectivity against PKG": ">300"
  },
  {
    "Compound": "CCCC(C)(N)C1CCC(Oc2cc3cc[nH]c(=O)c3cc2Cl)CC1 (single isomer, unassigned) [Example 124]",
    "Selectivity against PKG": ">10"
  },
  {
    "Compound": "CCC(N)[C@]1(c2ccccc2)CC[C@H](Oc2cc3cc[nH]c(=O)c3cc2Cl)CC1 (stereo partly shown)",
    "Selectivity against PKG": ">300"
  },
  {
    "Compound": "CC(N)(c1ccccc1)C1CCC(Oc2cc3cc[nH]c(=O)c3cc2Cl)CC1 (single isomer, unassigned) [Example 123]",
    "Selectivity against PKG": ">10"
  },
  {
    "Compound": "CCC(N)[C@]1(c2cccc(OC(F)(F)F)c2)CC[C@H](Oc2cc3cc[nH]c(=O)c3cc2C)CC1 (stereo partly shown)",
    "Selectivity against PKG": ">10"
  },
  {
    "Compound": "NC(c1ccccc1)C1CCC(Oc2cc3cc[nH]c(=O)c3cc2Cl)CC1 (stereo not shown)",
    "Selectivity against PKG": ">10"
  },
  {
    "Compound": "COc1ccc(C(C)(N)C2CCC(Oc3cc4cc[nH]c(=O)c4cc3Cl)CC2)cc1 (stereo not shown)",
    "Selectivity against PKG": ">10"
  },
  {
    "Compound": "CCC(N)[C@]1(c2ccc(C)c(OC)c2)CC[C@H](Oc2cc3cc[nH]c(=O)c3cc2Cl)CC1 (stereo partly shown)",
    "Selectivity against PKG": ">100"
  }
]
